- STUDY_SYSTEM: CYP3A4 mutant L211F/D214E (Homo sapiens, UniProt P08684, D214E/L211F)
- Sequence (P08684 whole entry L211F/D214E): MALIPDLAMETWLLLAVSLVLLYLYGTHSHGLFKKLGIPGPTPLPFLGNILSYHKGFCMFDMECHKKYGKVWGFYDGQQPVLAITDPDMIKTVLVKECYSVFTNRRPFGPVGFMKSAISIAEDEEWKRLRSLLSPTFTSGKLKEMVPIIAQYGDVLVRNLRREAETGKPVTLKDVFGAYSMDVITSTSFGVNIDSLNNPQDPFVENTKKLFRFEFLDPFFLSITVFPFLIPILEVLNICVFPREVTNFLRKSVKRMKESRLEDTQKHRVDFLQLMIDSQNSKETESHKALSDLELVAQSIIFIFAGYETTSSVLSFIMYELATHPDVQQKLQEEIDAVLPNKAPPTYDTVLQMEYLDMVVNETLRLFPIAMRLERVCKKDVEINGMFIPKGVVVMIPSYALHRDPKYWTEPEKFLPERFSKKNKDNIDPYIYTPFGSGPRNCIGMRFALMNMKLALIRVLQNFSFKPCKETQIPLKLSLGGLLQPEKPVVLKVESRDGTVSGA
- PROTOCOL: Absorbance titration, substrate-induced spin shift
- CONDITION_INFO: human, 0.1 m na-hepes, pH 7.4

{"COMPOUND": "OCCCCc1ccc2ccc3cccc4ccc1c2c34 [1-PB, 1-pyrenebutanol]", "Kd, µM": 12.1}

====

- STUDY_SYSTEM: CYP3A4 wild type (Homo sapiens, UniProt P08684)
- Sequence (P08684 whole entry): as the sequence (P08684 whole entry L211F/D214E) above, with F211L, E214D counted along it
- PROTOCOL: Titration-by-dilution monitored by FRET
- Format: binding

{"ENTRY_SMILES": "OCCCCc1ccc2ccc3cccc4ccc1c2c34", "Kd (nM)": 250}

====

- STUDY_SYSTEM: CYP3A4 wild type (Homo sapiens, UniProt P08684)
- PROTOCOL: Titration-by-dilution at excess substrate monitored by spin shift
- Assay type: binding
- CONDITION_INFO: human, CYP3A4 wild type enzyme in buffer, pH 7.4

{"COMPOUND": "OCCCCc1ccc2ccc3cccc4ccc1c2c34 [1-PB, 1-pyrenebutanol]", "Kd / µM": 10.2}

====

- STUDY_SYSTEM: CYP3A4 mutant F213W (Homo sapiens, UniProt P08684, F213W)
- Sequence (P08684 whole entry F213W): as the sequence (P08684 whole entry L211F/D214E) above, with F211L, F213W, E214D counted along it
- PROTOCOL: Absorbance titration, substrate-induced spin shift
- CONDITION_INFO: human, CYP3A4 mutant F213W enzyme in buffer, pH 7.4
MEASURE: Kd (µM)

{"ENTRY_SMILES": "O=c1cc(-c2ccccc2)oc2c1ccc1ccccc12", "MEASURE": "Kd", "DATA_VALUE": 3.5}

====

- STUDY_SYSTEM: CYP3A4 mutant L211F/D214E (Homo sapiens, UniProt P08684, D214E/L211F)
- PROTOCOL: Titration-by-dilution monitored by FRET
- Type: binding
- CONDITION_INFO: KD1, L211F/D214E; equimolar enzyme-substrate mixture; FRET; 0.6 mg/ml HPCD
MEASURE: Kd (µM)

{"ENTRY_SMILES": "OCCCCc1ccc2ccc3cccc4ccc1c2c34", "DATA_VALUE": 0.82}

====

- STUDY_SYSTEM: CYP3A4 mutant F213W (Homo sapiens, UniProt P08684, F213W)
- PROTOCOL: Absorbance titration, substrate-induced spin shift
- CONDITION_INFO: human, 0.1 m na-hepes, pH 7.4
MEASURE: Kd (µM)

{"ENTRY_SMILES": "OCCCCc1ccc2ccc3cccc4ccc1c2c34", "STUDY_SYSTEM": "CYP3A4 mutant F213W (Homo sapiens, UniProt P08684, F213W)", "DATA_VALUE": 12.6}

====

- STUDY_SYSTEM: CYP3A4 wild type (Homo sapiens, UniProt P08684)
- PROTOCOL: Absorbance titration, substrate-induced spin shift
- CONDITION_INFO: human, pH 7.4

{"ENTRY_SMILES": "OCCCCc1ccc2ccc3cccc4ccc1c2c34", "STUDY_SYSTEM": "CYP3A4 wild type (Homo sapiens, UniProt P08684)", "MEASURE_UNIT": "µM", "Kd": 12.6}

====

- STUDY_SYSTEM: CYP3A4 mutant F304W (Homo sapiens, UniProt P08684, F304W)
- Sequence (P08684 whole entry F304W): as the sequence (P08684 whole entry L211F/D214E) above, with F211L, E214D, F304W counted along it
- PROTOCOL: Absorbance titration, substrate-induced spin shift
- CONDITION_INFO: human, CYP3A4 mutant F304W enzyme in buffer, pH 7.4

{"ENTRY_SMILES": "O=c1cc(-c2ccccc2)oc2c1ccc1ccccc12", "STUDY_SYSTEM": "CYP3A4 mutant F304W (Homo sapiens, UniProt P08684, F304W)", "MEASURE_UNIT": "µM", "Kd": 3.63}
